Data origin: paper PMC5053523

test system: vancomycin resistant enterococci (VRE) E. faecium; experiment: Broth microdilution MIC/MBC, VRE E. faecium; type: cell-based; conditions: E. faecium E1071 NR-28978
measurement.type: MBC (µM)
Report as a plain number; the unit µM is understood.

{"columns": ["query.smiles", "measurement.type", "observed"],
 "data": [
  ["O=C(O)[C@H](Cc1ccccc1)N1C(=O)/C(=C/c2cccc(-c3ccc(Cl)c(Cl)c3)c2)SC1=S", "MBC", 64]
]}

# next molecule below
Entry O=C(O)[C@H](Cc1ccccc1)N1C(=O)/C(=C/c2cccc(Oc3ccc(Cl)c(Cl)c3)c2)SC1=S : MBC on vancomycin resistant enterococci (VRE) E. faecium = 64
